All figures here come from PubChem BioAssay (Tox21).

Assay protocol: qHTS assay to identify small molecule agonists of the estrogen receptor beta (ER-beta) signaling pathway - cell viability counter screen (AID 1259380); note: nearly all actives have a fitted effect of over 30% in size
Experimental parameters: ER-beta-bla HEK293T viability, CellTiter-Glo luminescence, 16 h; series mostly up to 92.4 µM
Inconclusive results are not listed. The source made the active and inactive calls. Calls come from the whole dose curve; as a rule, active = well fitted cell-killing curve with a large enough effect in the repeat runs; inconclusive = weak or mixed curves, or effect the other way; inactive = flat fitted curve, though single readings scatter.
Labels: true (1) = active, false (0) = inactive

{"Compound": "CC(C)N=C(N)/N=C(\\N)Nc1ccc(Cl)cc1", "Answer label": "true (1)"}
{"Compound": "CC1(C)C(=O)N(Br)C(=O)N1Br", "Answer label": "false (0)"}
{"Compound": "Cc1cc2c(C(C)C)c(O)c(O)c(C=O)c2c(O)c1-c1c(C)cc2c(C(C)C)c(O)c(O)c(C=O)c2c1O", "Answer label": "true (1)"}
{"Compound": "O=C1c2c(O)ccc([N+](=O)[O-])c2C(=O)c2c([N+](=O)[O-])ccc(O)c21", "Answer label": "true (1)"}
{"Compound": "CC(C)(C)c1n[nH]c(=O)n(N)c1=O", "Answer label": "false (0)"}
{"Compound": "O=C(Nc1ccc(Cl)c(Cl)c1)c1cc(Cl)cc(Cl)c1O", "Answer label": "true (1)"}
{"Compound": "CCOC(=O)COc1ccc(C)cc1", "Answer label": "false (0)"}
{"Compound": "Cc1ccc2ccc3cccc4ccc1c2c34", "Answer label": "true (1)"}
{"Compound": "S=P(N1CC1)(N1CC1)N1CC1", "Answer label": "false (0)"}
{"Compound": "NC1(c2ccc(-c3nc4ccn5c(=O)[nH]nc5c4cc3-c3ccccc3)cc2)CCC1", "Answer label": "true (1)"}
{"Compound": "CCC(C)C(=O)OC (centres undefined)", "Answer label": "false (0)"}
{"Compound": "CCCOc1sc(C(=O)N2CCC(c3cc(CN)ccc3F)CC2)c(C)c1Br", "Answer label": "true (1)"}
{"Compound": "O[C@@H](c1cc(C(F)(F)F)nc2c(C(F)(F)F)cccc12)[C@H]1CCCCN1", "Answer label": "true (1)"}
{"Compound": "COc1cccc(OC)c1O", "Answer label": "false (0)"}
